Every entry's value here was drawn from patent US20190218277A1.

Target: T1, Recombinant soluble E protein (0.8E-His) from DENV-3 (DENV-3, UniProt P27915 281-673)
T1 construct: also called DENV-3 E protein; DV3
measured-metric: Kd (pM)
Answers are plain numbers, in pM.

{"binder": "DG_3CH989-SG182/3CL633-SK1 (antibody, V domains shown) VH: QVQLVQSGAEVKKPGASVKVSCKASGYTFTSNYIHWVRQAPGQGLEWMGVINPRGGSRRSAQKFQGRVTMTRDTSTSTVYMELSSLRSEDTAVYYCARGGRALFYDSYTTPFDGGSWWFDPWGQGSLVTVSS VL: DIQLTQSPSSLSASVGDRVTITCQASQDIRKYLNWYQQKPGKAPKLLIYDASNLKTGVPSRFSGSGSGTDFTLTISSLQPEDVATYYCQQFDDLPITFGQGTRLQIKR", "Kd [pM]": 2.37}
{"binder": "DG_3CH989-SG182/3CL119-SK1 (antibody, V domains shown) VH: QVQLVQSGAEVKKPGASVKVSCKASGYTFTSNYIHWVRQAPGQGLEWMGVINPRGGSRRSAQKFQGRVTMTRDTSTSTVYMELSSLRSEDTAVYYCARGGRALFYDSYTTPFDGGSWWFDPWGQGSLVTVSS VL: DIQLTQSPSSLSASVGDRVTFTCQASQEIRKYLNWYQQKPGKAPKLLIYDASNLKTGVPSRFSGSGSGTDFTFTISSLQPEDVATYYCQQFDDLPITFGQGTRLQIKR", "Kd [pM]": 6.83}

Moving on to the next binder.
query: Suppose we examine the binder DG_3CH1000-SG182/3CL666-SK1 (antibody, V domains shown) VH: QVQLVQSGPDVEKPGASVKVSCKASGYTFTSYYMHWVRQAPGQGLEWMGVINPRGGSRRSAQKFQGRITMTRDTSTSTVYMELSSLRSEDTAVYYCARGGRALFYDSYTTPFDGGSWWFDPWGQGSLVTVSS VL: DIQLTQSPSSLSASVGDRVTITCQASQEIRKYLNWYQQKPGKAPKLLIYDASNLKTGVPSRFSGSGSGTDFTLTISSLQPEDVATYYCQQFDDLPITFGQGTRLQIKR ; what Kd value has been reported?
result: 2.5
